Provide the recorded log10 IC50 for the entries that follow.
# Test system: H1975 cells
# methodSummary: H1975 Cell Proliferation Assay (MTT)
# Type: cell-based
# conditionLabel: Homo sapiens, NCI-H1975, 72 h, read-out: IC50 Value (μM) H1975 Cells
# Description: Cell proliferation is determined using the MTT assay. The MTT cell proliferation assay is a colorimetric assay system which measures the reduction of a tetrazolium component (MTT) into an insoluble formazan product by the mitochondria of viable cells. After incubation of the cells with the MTT reagent, DMSO is added to solubilize the colored crystals and the samples read at a wavelength of 560 nm. The amount of color produced is directly proportional to the number of viable cells. […]
Use the decimal logarithm of IC50 (µM).

Field: log10 IC50. Fill in for each record below.
1. Cc1c(Cl)cnc(NC(c2cccc(Cl)c2Cl)c2ccc3cccnc3c2O)c1F (stereo not drawn)
2. Oc1c(C(Nc2ccc(Cl)cn2)c2cc(Cl)ccc2Cl)ccc2cccnc12 (stereo not drawn)

# output
[-0.72, -0.36]

---

# methodSummary: Stability on incubation with mouse liver microsomes (MLM)
# Format: in vitro ADME
# conditionLabel: percentage left after incubation with mouse liver microsomes for 30 minutes
The class of a record is decided solely by its measured MLM % Remaining@ 30 Min; consult low: < 30%; middle: ≥ 30% and < 60%; high: ≥ 60%

Examples from the recorded data:
compound	answerLabel
Oc1c(C(Nc2cc(Cl)c(Cl)cn2)c2ccc(Cl)cc2Cl)ccc2cccnc12 (stereo not shown)	high
Cc1ccnc(NC(c2ccccc2Cl)c2ccc3cccnc3c2O)c1 (stereo not shown)	low
Cc1cccc(NC(c2cccc(Cl)c2Cl)c2ccc3cccnc3c2O)n1 (stereo not shown)	low
Oc1c(C(Nc2cc(Cl)c(Cl)cn2)c2ccc(F)cc2Cl)ccc2cccnc12 (stereo not shown)	middle
Oc1c(C(Nc2ccc(Cl)cn2)c2cc(Cl)cc(Cl)c2)ccc2cccnc12 (stereo not shown)	middle

# input Record Oc1c(C(Nc2ccc(Cl)cn2)c2cccc(Cl)c2Cl)ccc2cccnc12 (stereo not shown) — which class?
# output middle

# input Each compound maps to one class by MLM % Remaining@ 30 Min. Which class for Oc1c(C(Nc2ccc(Cl)cn2)c2ccc(Cl)c(Cl)c2)ccc2cccnc12 (stereo not shown) ?
# output middle

# input Could you place Oc1c(C(Nc2ccc(C(F)(F)F)cn2)c2ccc(C(F)(F)F)cc2F)ccc2cccnc12 (stereo not shown) in its proper category? Many thanks.
# output high

# input # bin label for Cc1nc(NC(c2ccc(Cl)cc2Cl)c2ccc3cccnc3c2O)c(Cl)cc1Cl (stereo not shown)
# output high

# input Hi, small favor: classify Cc1ccnc(NC(c2ccc(Cl)c(Cl)c2)c2ccc3cccnc3c2O)c1 (stereo not shown) by its MLM % Remaining@ 30 Min when you get a moment.
# output low

# input Kindly state the category for this compound: Cc1cccc(NC(c2ccc3cccnc3c2O)c2c(F)cccc2Cl)n1 (stereo not shown)
# output low

# input Lab note: sort Oc1c(C(Nc2ccc(F)cn2)c2cc(Cl)cc(Cl)c2Cl)ccc2cccnc12 (stereo not shown) [AD4-13111] into the matching MLM % Remaining@ 30 Min band.
# output high

# input Exam item: assign Cc1cc(Cl)cnc1NC(c1cccc(Cl)c1Cl)c1ccc2cccnc2c1O (stereo not shown) to the correct category.
# output middle

# input Please classify: Cc1cccc(NC(c2cc(Cl)cc(Cl)c2)c2ccc3ccc(C)nc3c2O)n1 (stereo not shown)
# output low

# input For Cc1nc(NC(c2ccc(Cl)c(Cl)c2)c2ccc3cccnc3c2O)c(Cl)cc1Cl (stereo not shown) , which MLM % Remaining@ 30 Min bin applies?
# output high

# input Field: class (MLM % Remaining@ 30 Min) — entry: Cc1cccc(NC(c2cc(Cl)cc(Cl)c2)c2cc(Cl)c3cccnc3c2O)n1 (stereo not shown)
# output low

Origin of the recorded values: patent US9073858B2
